# Tested on: SJSA-1 (Osteosarcoma);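 note: after 72 h of two-drug dosing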
# measurement_notes: Bliss excess, mean over the matrix (fraction); higher = more synergy
Binning of Bliss excess into classes: lowest (below -0.05), middle (-0.05 to below -0.03), highest (-0.03 or more)

Answered examples (3):
CC1(C)CCC(CN2CCN(c3ccc(C(=O)NS(=O)(=O)c4ccc(NCC5CCOCC5)c([N+](=O)[O-])c4)c(Oc4cnc5[nH]ccc5c4)c3)CC2)=C(c2ccc(Cl)cc2)C1 [Venetoclax] + C=CCn1c(=O)c2cnc(Nc3ccc(N4CCN(C)CC4)cc3)nc2n1-c1cccc(C(C)(C)O)n1 [AZD1775] (first compound max 1 µM, partner max 1 µM)    lowest
COc1cc2c(cc1OCCCCCOc1cc3c(cc1OC)C(=O)N1C=C(C)C[C@H]1C=N3)N=C[C@@H]1CC(C)=CN1C2=O [SG3199] + O=C(c1cc(Cc2n[nH]c(=O)c3ccccc23)ccc1F)N1CCN(C(=O)C2CC2)CC1 [Olaparib] (first compound max 0.001 µM, 7x7, partner max 10 µM)    highest
C[C@@H]1COCCN1c1cc(C2([S@](C)(=N)=O)CC2)nc(-c2ccnc3[nH]ccc23)n1 [AZD6738] + O=C(c1cc(Cc2n[nH]c(=O)c3ccccc23)ccc1F)N1CCN(C(=O)C2CC2)CC1 [Olaparib] (first compound max 10 µM, 7x7, partner max 10 µM)    middle

**Q:** Lab log: CC1(C)CCC(CN2CCN(c3ccc(C(=O)NS(=O)(=O)c4ccc(NCC5CCOCC5)c([N+](=O)[O-])c4)c(Oc4cnc5[nH]ccc5c4)c3)CC2)=C(c2ccc(Cl)cc2)C1 [Venetoclax] + COc1cc(Nc2ncc3c(n2)-c2ccc(Cl)cc2C(c2c(F)cccc2OC)=NC3)ccc1C(=O)O [Alisertib] (first compound max 1 µM, 7x7, partner max 10 µM) — assign Bliss excess category
**A:** lowest

**Q:** Thanks! And COc1cccc(OCCCN)c1-c1cc(Nc2cnc(C#N)cn2)n[nH]1 [Prexasertib] + Cc1cc2ncnn2cc1Nc1ncc2c(n1)n(C1CCOCC1)c(=O)n2C [AZD7648] (first compound max 1 µM, 7x7, partner max 10 µM) ?
**A:** middle

----------
# System: PC-3 (Prostate Carcinoma)
# measurement_notes: combination Emax (second highest fraction inhibited in the dose matrix, 72 h); higher = more inhibition; extreme values may be limits of the assay
Each entry below lists one item and its recorded combination Emax value.
API doc: respond with a numeric literal and nothing else, no unit.

Use the examples below as a reference point.
CC1(C)CCC(CN2CCN(c3ccc(C(=O)NS(=O)(=O)c4ccc(NCC5CCOCC5)c([N+](=O)[O-])c4)c(Oc4cnc5[nH]ccc5c4)c3)CC2)=C(c2ccc(Cl)cc2)C1 [Venetoclax] + Cn1cnc2c(F)c(Nc3ccc(Br)cc3Cl)c(C(=O)NOCCO)cc21 [Selumetinib] (first compound max 1 µM, 7x7, partner max 3 µM)    0.152
C[C@@H]1COCCN1c1cc(C2([S@](C)(=N)=O)CC2)nc(-c2ccnc3[nH]ccc23)n1 [AZD6738] + O=C(c1cc(Cc2n[nH]c(=O)c3ccccc23)ccc1F)N1CCN(C(=O)C2CC2)CC1 [Olaparib] (first compound max 10 µM, 7x7, partner max 10 µM)    0.514

// next entry
**Q:** Consider the compound shown here: CN(CCO)CC[C@H](CSc1ccccc1)Nc1ccc(S(=O)(=O)NC(=O)c2ccc(N3CCC([C@@H](O)c4ccccc4-c4ccc(Cl)cc4)CC3)cc2)cc1S(=O)(=O)C(F)(F)F [AZD4320] + C[C@@H](Nc1cc(F)cc(F)c1)c1cc(C(=O)N(C)C)cc2c(=O)cc(N3CCOCC3)oc12 [AZD8186] (first compound max 1 µM, 7x7, partner max 3 µM) What is its recorded combination Emax?
**A:** 0.437
